target: Bub1 (Homo sapiens, UniProt O43683); assay: Formation-Assay: phosphorylation status of histone 2A by inhibition of kinase activity of Bub1; assay type: cell-based; conditions: Biological Assay 4.1: H2A Formation IC50, co-treatment with Nocodazole 1 μg/ml, 16 h
Sequence (O43683 whole entry): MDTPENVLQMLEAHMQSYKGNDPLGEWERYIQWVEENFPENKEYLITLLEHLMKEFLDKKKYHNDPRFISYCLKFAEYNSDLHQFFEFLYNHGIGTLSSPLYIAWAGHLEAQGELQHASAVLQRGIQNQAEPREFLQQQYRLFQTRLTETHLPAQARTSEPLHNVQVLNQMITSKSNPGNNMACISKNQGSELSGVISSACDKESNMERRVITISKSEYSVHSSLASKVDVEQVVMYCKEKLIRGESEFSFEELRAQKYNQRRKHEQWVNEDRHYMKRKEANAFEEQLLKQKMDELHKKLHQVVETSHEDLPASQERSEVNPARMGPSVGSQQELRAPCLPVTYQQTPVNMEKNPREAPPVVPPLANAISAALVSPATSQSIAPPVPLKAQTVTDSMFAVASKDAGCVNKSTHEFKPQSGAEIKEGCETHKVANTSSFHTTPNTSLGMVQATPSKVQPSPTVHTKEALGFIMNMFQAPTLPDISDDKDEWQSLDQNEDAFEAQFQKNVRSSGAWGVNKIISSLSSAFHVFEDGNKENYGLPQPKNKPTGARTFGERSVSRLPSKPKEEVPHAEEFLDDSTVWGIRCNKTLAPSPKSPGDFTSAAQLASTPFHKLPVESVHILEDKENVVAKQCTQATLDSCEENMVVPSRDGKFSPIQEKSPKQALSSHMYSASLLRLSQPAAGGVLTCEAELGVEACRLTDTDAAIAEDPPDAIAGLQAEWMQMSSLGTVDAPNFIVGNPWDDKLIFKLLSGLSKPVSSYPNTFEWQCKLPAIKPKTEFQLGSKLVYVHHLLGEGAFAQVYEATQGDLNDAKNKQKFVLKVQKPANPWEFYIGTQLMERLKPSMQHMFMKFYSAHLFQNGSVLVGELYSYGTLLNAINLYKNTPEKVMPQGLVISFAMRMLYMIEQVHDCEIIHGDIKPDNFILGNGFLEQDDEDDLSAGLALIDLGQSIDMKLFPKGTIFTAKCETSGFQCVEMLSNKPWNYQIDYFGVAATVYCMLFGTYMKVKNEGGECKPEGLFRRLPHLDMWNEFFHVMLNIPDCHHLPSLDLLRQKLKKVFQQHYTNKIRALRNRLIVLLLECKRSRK
measured-attribute: pIC50
Quick note: pIC50 values are minus log10 of concentrations in mol/L.

The cases that follow already have their pIC50 on record.
Would you please give the reported pIC50 of OCCOc1cc(F)c(Cn2nc(-c3nc4c(c(Nc5ccnnc5)n3)CCC4)c3ccccc32)c(F)c1 [Example 2-4-10] with Bub1 (Homo sapiens, UniProt O43683)?
8.00

Give pIC50 only, for CCOc1cc(F)c(Cn2nc(-c3nc(CN4CCOCC4)cc(Nc4ccnc(S(C)(=O)=O)c4)n3)c3ccccc32)c(F)c1 [Example 2-12-33] , using Bub1 (Homo sapiens, UniProt O43683) data.
6.43

Please report the measured pIC50 for CCOc1cc(F)c(Cn2nc(-c3ncc(CCCCN4CCOCC4)c(Nc4ccncc4)n3)c3ccccc32)c(F)c1 [Example 2-2-12] tested on Bub1 (Homo sapiens, UniProt O43683).
6.10

# return pIC50 for CCOc1cc(F)c(Cn2nc(-c3nc4c(c(Nc5ccnc(C(F)F)c5)n3)CCCC4)c3ccccc32)c(F)c1 [Example 2-19-19] , test system: Bub1 (Homo sapiens, UniProt O43683)
8.14

Look up Bub1 (Homo sapiens, UniProt O43683) data: pIC50 of CCOc1cc(F)c(Cn2nc(-c3ncc(CCCS(C)(=O)=O)c(Nc4ccncc4)n3)c3ccccc32)c(F)c1 [Example 2-3-2] , then report it.
6.00

// fetch pIC50 for CCOc1cc(F)c(Cn2nc(-c3ncc(CCCCN4CCCC(F)(F)C4)c(Nc4ccncc4)n3)c3ccccc32)c(F)c1 [Example 2-2-17] ; system: Bub1 (Homo sapiens, UniProt O43683)
5.92

Continuing:
Give Bub1 (Homo sapiens, UniProt O43683) pIC50 for the following compound: COCc1cc(Nc2ccncc2C)nc(-c2nn(Cc3c(F)cc(OCCO)cc3F)c3ccccc23)n1 [Example 2-12-50]
7.64

Give pIC50 for this entry on Bub1 (Homo sapiens, UniProt O43683): Cc1nccc(Nc2nc(-c3nn(Cc4c(F)cc(OCCO)cc4F)c4ccccc34)nc3c2CCC(C)(C)C3)n1 [Example 2-6-24]
7.85

Report pIC50 on Bub1 (Homo sapiens, UniProt O43683) for this entry: CCOc1cc(F)c(Cn2nc(-c3ncc(CCN)c(Nc4ccnc(C(F)F)c4)n3)c3ccccc32)c(F)c1 [Example 2-9-10]
5.82

State measured pIC50 of the compound CCOc1cc(F)c(Cn2nc(-c3nc(C)c(Cl)c(Nc4ccncc4)n3)c3ccccc32)c(F)c1 [Example 2-12-23] with Bub1 (Homo sapiens, UniProt O43683).
8.00

Please report the measured pIC50 for CS(=O)(=O)CCCc1cnc(-c2nn(Cc3c(F)cc(OCCO)cc3F)c3ccccc23)nc1Nc1ccncc1 [Example 2-4-2] tested on Bub1 (Homo sapiens, UniProt O43683).
7.15

====

molecular target: catalytic domain of human Bub1 (amino acids 704-1085) (Homo sapiens); construct: catalytic domain of human Bub1 (amino acids 704-1085); His6 (N); made in house; host or cells: Hi5 insect cells; assay: Bub1 kinase assay (TR-FRET); assay type: biochemical; conditions: 10 μM ATP, read-out: Biological Assay 1: Bub1 kinase assay median IC50
Sequence (O43683 704-1085): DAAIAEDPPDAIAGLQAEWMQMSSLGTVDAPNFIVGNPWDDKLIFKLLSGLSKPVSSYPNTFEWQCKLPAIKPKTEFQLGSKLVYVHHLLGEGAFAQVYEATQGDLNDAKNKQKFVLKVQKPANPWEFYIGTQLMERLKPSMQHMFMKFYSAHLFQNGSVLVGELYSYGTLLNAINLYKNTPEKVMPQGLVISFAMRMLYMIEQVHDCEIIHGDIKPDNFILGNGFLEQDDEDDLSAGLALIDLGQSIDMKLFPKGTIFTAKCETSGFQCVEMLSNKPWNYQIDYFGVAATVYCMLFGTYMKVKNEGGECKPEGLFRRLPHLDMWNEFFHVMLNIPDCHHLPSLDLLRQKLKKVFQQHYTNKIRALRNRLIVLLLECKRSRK
measured-attribute: IC50

The following molecules have reported results that may help.
Specify IC50 for CCOc1cc(F)c(Cn2nc(-c3nc(Nc4cc(C)ncc4C)cc(C(F)(F)F)n3)c3ccccc32)c(F)c1 [Example 2-12-82] and stop.
> 20000 nM

Using known records, supply IC50 for CCOc1cc(F)c(Cn2nc(-c3nc4c(c(Nc5ccncc5)n3)CSC4)c3ccccc32)c(F)c1 [Example 2-19-1]
14 nM

New cases:
Determine its reported IC50: COc1cnccc1Nc1nc(-c2nn(Cc3c(F)cc(OCCO)cc3F)c3ccccc23)nc2c1CCC2 [Example 2-4-5]
28 nM

Assign IC50 to the following record: COCc1cc(Nc2ccncc2OC)nc(-c2nn(Cc3c(F)cc(OCCO)cc3F)c3ccccc23)n1 [Example 2-12-49]
8.8 nM

Return IC50 for the following molecule: CCOc1cc(F)c(Cn2nc(-c3nc4c(c(Nc5ccncc5F)n3)CCC4)c3ccccc32)c(F)c1 [Example 2-14-1]
9.6 nM

For the molecule CCOc1cc(F)c(Cn2nc(-c3ncc(CCN)c(Nc4ccncc4)n3)c3ccccc32)c(F)c1 [Example 2-9-2] , give its measured IC50 value.
8.8 nM

Write down IC50 measured for item COCCOc1cc(F)c(Cn2nc(-c3nc(Nc4cc(C)ncc4C)cc(C(C)C)n3)c3ccccc32)c(F)c1 [Example 2-12-74]
180 nM

State its IC50 for this molecule: COc1cnccc1Nc1cc(C)nc(-c2nn(Cc3c(F)cc(OCCO)cc3F)c3ccccc23)n1 [Example 2-6-33]
5.7 nM
